Readings of EC50 for the listed substances
# target: hNPY2R (Homo sapiens, UniProt P49146)
# Construct: expressed in transfected cells; host or cells: HEK-293 cells carrying a CRE-luciferase reporter gene
# Sequence (P49146 whole entry): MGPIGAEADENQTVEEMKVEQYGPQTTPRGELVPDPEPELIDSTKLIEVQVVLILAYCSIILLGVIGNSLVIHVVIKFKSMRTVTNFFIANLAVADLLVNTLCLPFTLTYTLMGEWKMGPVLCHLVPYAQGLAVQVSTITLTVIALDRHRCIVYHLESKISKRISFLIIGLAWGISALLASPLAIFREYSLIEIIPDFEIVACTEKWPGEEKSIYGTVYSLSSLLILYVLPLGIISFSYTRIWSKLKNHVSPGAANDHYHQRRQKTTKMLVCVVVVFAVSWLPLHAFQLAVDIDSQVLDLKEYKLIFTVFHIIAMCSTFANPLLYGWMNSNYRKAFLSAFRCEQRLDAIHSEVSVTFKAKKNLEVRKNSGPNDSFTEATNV
# method description: hNPY2R CreLuc reporter gene assay in 0.5% and 100% plasma
# Format: cell-based
# condition info: CreLuc reporter gene assay, 0.5% human plasma; read-out: hNPY2R 0.5% hP
Starred links: 1 amine or outer side, 2 acyl side, 3 side chain; linkers in the order of their positions; H or OH if unused. Non-standard residues stand in square brackets, D forms with d. Groups on a side chain read outwards from the residue. *: point of attachment. C20 diacid = O=C(O)CCCCCCCCCCCCCCCCCCC(=O)*; C18 diacid = O=C(O)CCCCCCCCCCCCCCCCC(=O)*; γGlu = O=C(O)[C@H](CCC(=O)[*:2])N[*:1]; εLys = N[C@@H](CCCCN[*:1])C(=O)[*:2]; AEEA = NCCOCCOCC(=O)O; Aib = CC(C)(N)C(=O)O
measured metric: EC50 (nM)

* H-Y[Aib]EGTFTSDYSI[Aib]LEKQAQ[Aib]EFVEWLIK([AEEA-AEEA-γGlu-γGlu-γGlu-γGlu-C18 diacid])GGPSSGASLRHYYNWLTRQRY-NH2 [Compound 145] | 11.9
* H-Y[Aib]EGTFTSDYSI[Aib]LEEQAQ[Aib]AFVEWLIK([εLys-γGlu-γGlu-γGlu-γGlu-γGlu-γGlu-C20 diacid])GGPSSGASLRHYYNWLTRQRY-NH2 [Compound 116] | 13.5
* H-Y[Aib]EGTFTSDYSI[Aib]LEKQAQ[Aib]AFVQWLIK([εLys-γGlu-γGlu-γGlu-γGlu-γGlu-γGlu-C20 diacid])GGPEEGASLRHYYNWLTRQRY-NH2 [Compound 89] | 14.8
